- Test system: Escherichia coli TOP10;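 further: peptides expressed intracellularly from a pBAD plasmid library in pooled LB shake-flask culture, induced with 0.3% L-arabinose, DNA abundance read by NGS, three biological replicates, DESeq2 with apeglm shrinkage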
- assay: shrunken log2 fold change of peptide-encoding DNA abundance (4.5 h post-induction vs induction); higher = less antimicrobial activity (less host growth inhibition)
- condition.summary: time post-induction: 4.5 h; library: site-saturation at positions 5, 18, 19, 20
So I've got a bunch of sequences here, and I need their shrunken log2 fold change values.
// return just the number, without any unit appended

Exercise: Bench note: what shrunken log2 fold change did RRIRCRPPRLPRPRPRPMQRPRP show?
Key: 0.0282

Exercise: Bench note: what shrunken log2 fold change did RRIRMRPPRLPRPRPRPSTKPRP show?
Key: 0.291

Exercise: Bench note: what shrunken log2 fold change did RRIRDRPPRLPRPRPRPYDIPRP show?
Key: -0.00136

Exercise: Bench note: what shrunken log2 fold change did RRIRRRPPRLPRPRPRPVDFPRP show?
Key: 0.178

Exercise: Bench note: what shrunken log2 fold change did RRIRSRPPRLPRPRPRPEQRPRP show?
Key: -0.011

Exercise: Bench note: what shrunken log2 fold change did RRIRQRPPRLPRPRPRPTKPPRP show?
Key: 0.0859

Exercise: Bench note: what shrunken log2 fold change did RRIRMRPPRLPRPRPRPCCFPRP show?
Key: 0.116

Exercise: Bench note: what shrunken log2 fold change did RRIRVRPPRLPRPRPRPKGEPRP show?
Key: -0.0112

Exercise: Bench note: what shrunken log2 fold change did RRIRDRPPRLPRPRPRPQLYPRP show?
Key: -0.162

Exercise: Bench note: what shrunken log2 fold change did RRIRMRPPRLPRPRPRPVKDPRP show?
Key: 0.0812

Exercise: Bench note: what shrunken log2 fold change did RRIRSRPPRLPRPRPRPNTPPRP show?
Key: -0.616

Exercise: Bench note: what shrunken log2 fold change did RRIRFRPPRLPRPRPRPQPKPRP show?
Key: 0.666

Exercise: Bench note: what shrunken log2 fold change did RRIRARPPRLPRPRPRPIHGPRP show?
Key: -0.208

Exercise: Bench note: what shrunken log2 fold change did RRIRWRPPRLPRPRPRPVIPPRP show?
Key: -0.0775

Exercise: Bench note: what shrunken log2 fold change did RRIRERPPRLPRPRPRPWTAPRP show?
Key: -0.478

Exercise: Bench note: what shrunken log2 fold change did RRIRLRPPRLPRPRPRPTWWPRP show?
Key: 0.454

Exercise: Bench note: what shrunken log2 fold change did RRIRCRPPRLPRPRPRPWVVPRP show?
Key: -0.168

Exercise: Bench note: what shrunken log2 fold change did RRIRKRPPRLPRPRPRPKQDPRP show?
Key: 0.119

Exercise: Bench note: what shrunken log2 fold change did RRIRRRPPRLPRPRPRPVGQPRP show?
Key: 0.0153

Exercise: Bench note: what shrunken log2 fold change did RRIRDRPPRLPRPRPRPARTPRP show?
Key: 0.364

Exercise: Bench note: what shrunken log2 fold change did RRIRHRPPRLPRPRPRPYDCPRP show?
Key: -0.0596

Exercise: Bench note: what shrunken log2 fold change did RRIRTRPPRLPRPRPRPHYPPRP show?
Key: -0.782

Exercise: Bench note: what shrunken log2 fold change did RRIRRRPPRLPRPRPRPWYYPRP show?
Key: -0.293

Exercise: Bench note: what shrunken log2 fold change did RRIRRRPPRLPRPRPRPIMIPRP show?
Key: -0.105

Exercise: Bench note: what shrunken log2 fold change did RRIRSRPPRLPRPRPRPLHIPRP show?
Key: -0.0437

Exercise: Bench note: what shrunken log2 fold change did RRIRNRPPRLPRPRPRPETFPRP show?
Key: 0.00884

Exercise: Bench note: what shrunken log2 fold change did RRIRERPPRLPRPRPRPNLPPRP show?
Key: -0.0648

Exercise: Bench note: what shrunken log2 fold change did RRIRMRPPRLPRPRPRPMNDPRP show?
Key: 0.25

Exercise: Bench note: what shrunken log2 fold change did RRIRERPPRLPRPRPRPLHHPRP show?
Key: -0.458

Exercise: Bench note: what shrunken log2 fold change did RRIRWRPPRLPRPRPRPGIKPRP show?
Key: -0.168

Exercise: Bench note: what shrunken log2 fold change did RRIRKRPPRLPRPRPRPCPCPRP show?
Key: 0.00911

Exercise: Bench note: what shrunken log2 fold change did RRIRTRPPRLPRPRPRPDFNPRP show?
Key: -0.177

Exercise: Bench note: what shrunken log2 fold change did RRIRERPPRLPRPRPRPWISPRP show?
Key: 0.0119

Exercise: Bench note: what shrunken log2 fold change did RRIRHRPPRLPRPRPRPHSNPRP show?
Key: -0.167

Exercise: Bench note: what shrunken log2 fold change did RRIRIRPPRLPRPRPRPWHIPRP show?
Key: 0.0542

Exercise: Bench note: what shrunken log2 fold change did RRIRERPPRLPRPRPRPTEEPRP show?
Key: 0.00212

Exercise: Bench note: what shrunken log2 fold change did RRIRGRPPRLPRPRPRPLHEPRP show?
Key: 0.74

Exercise: Bench note: what shrunken log2 fold change did RRIRDRPPRLPRPRPRPYGAPRP show?
Key: 0.00308

Exercise: Bench note: what shrunken log2 fold change did RRIRMRPPRLPRPRPRPEGVPRP show?
Key: 3.21

Exercise: Bench note: what shrunken log2 fold change did RRIRHRPPRLPRPRPRPEDHPRP show?
Key: 0.0753

Exercise: Bench note: what shrunken log2 fold change did RRIRSRPPRLPRPRPRPVKNPRP show?
Key: 0.291

Exercise: Bench note: what shrunken log2 fold change did RRIRFRPPRLPRPRPRPLPSPRP show?
Key: 0.0283

These measurements were taken from the supplement of paper PMC9112550.
